Target: UniProtKB Q8NET8
Assay: Radiometric calcium selectivity assay, CHO cells expressing human TRPV3 (2-aminoethoxydiphenyl borate)
Details: read-out: IC50 values hTRPV3
measured property: IC50

Qu. Fill in the blank: the reported IC50 of Cn1c(=O)c2c(CC(=O)Nc3nc(-c4cccc(C(F)(F)F)c4F)cs3)coc2n(C)c1=O is ____.
Ans. > 1 µM

====

Biological target: human TRPV3 (Homo sapiens (Human), UniProt Q8NET8)
Sequence (Q8NET8 whole entry): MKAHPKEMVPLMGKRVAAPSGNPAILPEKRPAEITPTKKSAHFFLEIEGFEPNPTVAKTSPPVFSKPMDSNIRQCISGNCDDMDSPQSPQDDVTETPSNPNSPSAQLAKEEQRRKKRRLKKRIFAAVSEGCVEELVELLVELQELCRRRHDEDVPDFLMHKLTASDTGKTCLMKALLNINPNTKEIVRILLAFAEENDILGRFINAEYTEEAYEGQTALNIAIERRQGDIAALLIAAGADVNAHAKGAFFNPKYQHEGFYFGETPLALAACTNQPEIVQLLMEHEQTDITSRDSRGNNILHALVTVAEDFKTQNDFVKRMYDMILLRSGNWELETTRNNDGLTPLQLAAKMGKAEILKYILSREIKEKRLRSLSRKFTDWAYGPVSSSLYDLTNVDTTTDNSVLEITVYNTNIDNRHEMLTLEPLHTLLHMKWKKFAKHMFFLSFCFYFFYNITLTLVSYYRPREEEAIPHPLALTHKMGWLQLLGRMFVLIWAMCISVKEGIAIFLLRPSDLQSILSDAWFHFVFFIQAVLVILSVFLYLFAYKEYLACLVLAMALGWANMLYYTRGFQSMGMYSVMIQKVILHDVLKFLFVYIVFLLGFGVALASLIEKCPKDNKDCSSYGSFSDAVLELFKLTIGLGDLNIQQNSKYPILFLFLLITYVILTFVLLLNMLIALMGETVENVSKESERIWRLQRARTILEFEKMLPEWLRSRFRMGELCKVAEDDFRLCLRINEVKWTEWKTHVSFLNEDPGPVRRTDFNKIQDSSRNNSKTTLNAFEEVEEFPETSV
Assay: Radiometric calcium selectivity assay, CHO cells expressing human TRPV3 (2-aminoethoxydiphenyl borate)
Settings: read-out: IC50 values hTRPV3
pIC50: −log10 of the molar value.
measured property: pIC50

test smiles: Cn1c(=O)c2c(CC(=O)Nc3nc(-c4cc(F)c(OCC(F)(F)F)c(F)c4)cs3)cccc2n(C)c1=O
system tested: human TRPV3 (Homo sapiens (Human), UniProt Q8NET8)
pIC50: < 5.00

Qu. Fill in the blank: the reported pIC50 of Cn1c(=O)c2c(CC(=O)Nc3nc(-c4ccc(F)c(C(F)(F)F)c4F)cs3)nsc2n(C)c1=O is ____.
Ans. 5.75

Qu. Fill in the blank: the reported pIC50 of Cc1oc2c(c1CC(=O)Nc1nc(-c3cc(F)cc(C(F)(F)F)c3)cs1)c(=O)n(C)c(=O)n2C is ____.
Ans. < 5.00

Qu. Fill in the blank: the reported pIC50 of Cn1c(=O)c2c(ccn2CC(=O)Nc2nc(-c3ccc(OC(F)(F)F)cc3)cs2)n(C)c1=O is ____.
Ans. < 5.00

====

Experiment: Pharmacokinetics in guinea pig upon intra-tracheal administration
Format: in vivo
Details: guinea pig, other: intra-tracheal, 500 ug; Lung Tissue, 500 mcg i.t.
measured property: Tmax (h)
Please give a number only; it is taken to be in h.

Qu. Fill in the blank: the reported Tmax of Cn1c(=O)c2c(CC(=O)Nc3nc(-c4ccc(F)c(C(F)(F)F)c4F)cs3)csc2n(C)c1=O [Compound 52] is ____.
Ans. 8

====

Target: human TRPM8 (Homo sapiens (Human))
Sequence (Q7Z2W7 whole entry): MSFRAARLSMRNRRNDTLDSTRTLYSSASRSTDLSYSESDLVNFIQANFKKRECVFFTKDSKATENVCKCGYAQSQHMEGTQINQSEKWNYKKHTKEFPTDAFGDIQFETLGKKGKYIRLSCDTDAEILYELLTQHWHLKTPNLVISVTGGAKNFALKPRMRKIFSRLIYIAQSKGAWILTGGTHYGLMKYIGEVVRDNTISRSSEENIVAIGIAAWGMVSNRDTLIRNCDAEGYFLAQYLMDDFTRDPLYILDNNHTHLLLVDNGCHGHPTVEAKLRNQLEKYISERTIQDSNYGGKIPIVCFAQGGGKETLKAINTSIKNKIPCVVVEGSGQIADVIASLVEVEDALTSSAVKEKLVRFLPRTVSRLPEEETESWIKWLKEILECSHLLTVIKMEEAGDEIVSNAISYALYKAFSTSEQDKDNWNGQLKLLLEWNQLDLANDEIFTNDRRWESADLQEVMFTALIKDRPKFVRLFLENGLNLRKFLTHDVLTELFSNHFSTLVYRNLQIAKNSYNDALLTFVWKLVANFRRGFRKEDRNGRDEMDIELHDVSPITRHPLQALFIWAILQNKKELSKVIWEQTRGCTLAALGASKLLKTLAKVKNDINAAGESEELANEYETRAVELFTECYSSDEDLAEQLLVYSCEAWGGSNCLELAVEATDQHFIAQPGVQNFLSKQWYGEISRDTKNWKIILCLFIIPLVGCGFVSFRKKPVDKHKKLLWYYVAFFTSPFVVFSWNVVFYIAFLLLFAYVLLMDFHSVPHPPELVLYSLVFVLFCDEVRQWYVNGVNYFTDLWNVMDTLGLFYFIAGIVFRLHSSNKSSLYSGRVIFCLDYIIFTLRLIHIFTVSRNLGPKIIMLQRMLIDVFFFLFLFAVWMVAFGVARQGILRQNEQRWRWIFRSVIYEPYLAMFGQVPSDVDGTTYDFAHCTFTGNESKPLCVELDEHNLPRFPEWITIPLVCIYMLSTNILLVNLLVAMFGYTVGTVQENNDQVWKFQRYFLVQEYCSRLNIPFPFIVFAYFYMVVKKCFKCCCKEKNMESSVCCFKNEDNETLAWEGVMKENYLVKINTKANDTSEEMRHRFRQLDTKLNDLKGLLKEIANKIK
Test: Radiometric calcium selectivity assay, CHO cells expressing human TRPM8 (icilin)
Conditions: read-out: IC50 values hTRPM8
pIC50: −log10 of the molar value.
measured property: pIC50

Known pIC50 results, listed for orientation:
test smiles: Cn1c(=O)c2c(CC(=O)Nc3nc(-c4ccc(F)c(C(F)(F)F)c4F)cs3)ccnc2n(C)c1=O
value reported: < 5.00
//
test smiles: Cn1c(=O)c2c(CC(=O)Nc3nc(-c4ccc(I)cc4)cs3)cccc2n(C)c1=O
value reported: < 5.00
//
test smiles: Cn1nc2c(c1CC(=O)Nc1nc(-c3ccc(C(F)(F)F)cc3)cs1)c(=O)n(C)c(=O)n2C
value reported: < 5.00

Let us examine a further case.
Qu. Fill in the blank: the reported pIC50 of Cn1c(=O)c2c(CC(=O)Nc3nc(-c4ccc(C(F)(F)F)c(F)c4)cs3)coc2n(C)c1=O is ____.
Ans. < 5.00

====

Biological target: human TRPA1 (Homo sapiens (Human))
Sequence (O75762 whole entry): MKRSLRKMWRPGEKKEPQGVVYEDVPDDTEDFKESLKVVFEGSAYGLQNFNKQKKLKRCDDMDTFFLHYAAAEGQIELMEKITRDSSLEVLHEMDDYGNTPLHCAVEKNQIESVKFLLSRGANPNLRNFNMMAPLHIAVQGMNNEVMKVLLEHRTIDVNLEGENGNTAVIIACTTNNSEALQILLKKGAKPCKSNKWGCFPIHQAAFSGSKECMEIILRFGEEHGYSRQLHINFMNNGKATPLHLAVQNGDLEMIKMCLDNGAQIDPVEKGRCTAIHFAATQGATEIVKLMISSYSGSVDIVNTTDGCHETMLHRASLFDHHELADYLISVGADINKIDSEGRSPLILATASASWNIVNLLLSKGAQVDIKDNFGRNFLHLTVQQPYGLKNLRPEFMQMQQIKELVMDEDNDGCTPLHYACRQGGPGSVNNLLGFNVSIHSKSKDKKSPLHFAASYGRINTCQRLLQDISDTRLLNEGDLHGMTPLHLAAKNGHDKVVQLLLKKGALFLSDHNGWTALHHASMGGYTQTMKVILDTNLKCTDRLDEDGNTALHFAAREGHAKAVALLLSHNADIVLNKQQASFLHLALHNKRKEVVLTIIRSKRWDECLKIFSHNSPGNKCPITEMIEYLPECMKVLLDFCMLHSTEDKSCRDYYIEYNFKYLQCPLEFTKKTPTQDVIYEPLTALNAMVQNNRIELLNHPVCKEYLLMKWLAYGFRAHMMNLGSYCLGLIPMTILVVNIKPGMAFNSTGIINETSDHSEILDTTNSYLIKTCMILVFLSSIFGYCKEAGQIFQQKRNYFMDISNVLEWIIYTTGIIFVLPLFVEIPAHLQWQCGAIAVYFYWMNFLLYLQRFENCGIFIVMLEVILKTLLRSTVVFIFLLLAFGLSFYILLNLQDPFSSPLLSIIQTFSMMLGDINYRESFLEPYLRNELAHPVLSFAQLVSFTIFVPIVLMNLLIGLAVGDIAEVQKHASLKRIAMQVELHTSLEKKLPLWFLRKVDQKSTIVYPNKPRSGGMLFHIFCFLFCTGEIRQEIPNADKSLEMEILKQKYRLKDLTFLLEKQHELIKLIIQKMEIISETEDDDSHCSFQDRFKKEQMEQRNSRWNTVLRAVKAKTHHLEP
Assay: 45Calcium uptake assay, AITC induced, human TRPA1 expressing CHO cells
Conditions: AITC 30 micromolar, read-out: IC50 values hTRPA1
pIC50: −log10 of the molar value.
measured property: pIC50

Known pIC50 results, listed for orientation:
compound: Cn1c(=O)c2c(cnn2CC(=O)Nc2nc(-c3ccc(OCC(C)(C)C)c(F)c3)cs2)n(C)c1=O [Compound 45]
pIC50: 7.58
--
compound: Cn1c(=O)c2c(CC(=O)Nc3nc(-c4ccc(C(F)(F)F)cc4F)cs3)nsc2n(C)c1=O [Compound 78]
pIC50: 7.98
--
compound: Cn1c(=O)c2c(CC(=O)Nc3nc(-c4ccc(OC(F)(F)F)c(F)c4)cs3)cccc2n(C)c1=O [Compound 29]
pIC50: 7.94
--
compound: CCc1sc2c(c1CC(=O)Nc1nc(-c3cc(F)c(OC(F)F)c(F)c3)cs1)c(=O)n(C)c(=O)n2C [Compound 48]
pIC50: 7.74
--
compound: CCc1ccc(-c2csc(NC(=O)Cc3cccc4c3c(=O)n(C)c(=O)n4C)n2)cc1 [Compound 17]
pIC50: 7.25
--
compound: Cn1c(=O)c2c(CC(=O)Nc3ccn(-c4ccc(Cl)cc4)n3)cccc2n(C)c1=O [Compound 8]
pIC50: 7.26
--
compound: Cn1c(=O)c2c(CC(=O)Nc3nc(-c4ccc(F)c(C(F)(F)F)c4)cs3)coc2n(C)c1=O [Compound 58]
pIC50: 7.93

A: Cn1c(=O)c2c(CC(=O)Nc3nc(-c4ccc(F)c(C(F)(F)F)c4)cs3)cccc2n(C)c1=O [Compound 20]
B: Cn1c(=O)c2c(CC(=O)Nc3nc(-c4ccc(Br)cc4)cs3)cccc2n(C)c1=O [Compound 3]
C: Cn1c(=O)c2c(CC(=O)Nc3nc(-c4ccc(F)c(C(F)(F)F)c4F)cs3)nsc2n(C)c1=O [Compound 77]
Qu. Sort (3 compounds) by pIC50: min first. I would appreciate it if you listed the labels in the requested order.
Ans. B, A, C
(B: 7.13, A: 7.70, C: 8.25)
